Target: T1, MDA5-C (UniProt Q9BYX4 295-1025)
T1 sequence: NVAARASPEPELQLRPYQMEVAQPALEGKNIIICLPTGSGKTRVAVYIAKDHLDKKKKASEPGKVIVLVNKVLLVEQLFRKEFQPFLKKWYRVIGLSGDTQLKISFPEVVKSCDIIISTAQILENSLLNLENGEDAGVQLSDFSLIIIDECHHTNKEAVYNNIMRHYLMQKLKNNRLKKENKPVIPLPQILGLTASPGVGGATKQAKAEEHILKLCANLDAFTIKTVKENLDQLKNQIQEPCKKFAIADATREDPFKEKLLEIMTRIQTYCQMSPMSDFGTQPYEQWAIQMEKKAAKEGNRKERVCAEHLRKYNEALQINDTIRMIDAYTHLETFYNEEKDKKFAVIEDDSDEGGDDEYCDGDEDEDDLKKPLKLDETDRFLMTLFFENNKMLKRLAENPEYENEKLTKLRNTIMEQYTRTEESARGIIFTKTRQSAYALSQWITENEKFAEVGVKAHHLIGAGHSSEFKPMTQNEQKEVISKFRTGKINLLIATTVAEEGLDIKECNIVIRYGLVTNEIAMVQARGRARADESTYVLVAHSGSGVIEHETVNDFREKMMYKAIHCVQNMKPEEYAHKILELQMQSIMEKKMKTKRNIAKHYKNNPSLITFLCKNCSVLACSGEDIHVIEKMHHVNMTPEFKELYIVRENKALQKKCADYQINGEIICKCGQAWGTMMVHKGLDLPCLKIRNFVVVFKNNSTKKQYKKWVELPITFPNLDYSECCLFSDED
Assay: single-molecule TIRF
pKd: −log10 of the molar value.

binder	pKd
44bp dsRNA (dsRNA, strand 2 5' amino modifier C6 (5AmMC6)) RNA 1: CGAGCAGACUGGCAAUCCGGAUCUCCCAGGCCCGGCUUUCAAGC RNA 2: GCUUGAAAGCCGGGCCUGGGAGAUCCGGAUUGCCAGUCUGCUCG	6.11
